tested on: A431; assay: whole-cell filipin (free cholesterol) integrated intensity, Z-score; higher = more cholesterol staining; settings: compound concentration in added solution (µM; 5 µl added to 20 µl cells): 10; 18 h
Structures can show the parent of a compound that is named as a salt.
Observation Type: whole-cell filipin (z-score)

Record excerpt, results attached:
| Compound | whole-cell filipin (z-score) |
| --- | --- |
| Nc1ncnc2c1ncn2[C@@H]1O[C@H](CO)[C@@H](O)[C@@H]1O | -0.393 |
| CC#C[C@]1(O)CC[C@H]2[C@@H]3CCC4=CC(=O)CCC4=C3[C@@H](c3ccc(N(C)C)cc3)C[C@@]21C | -0.703 |
| CC(=O)c1ccc2c(c1)N(CCCN1CCC(CCO)CC1)c1ccccc1S2 | 2.51 |
| CN(C)CCOC(c1ccccc1)c1ccccc1 [Diphenhydramine hydrochloride] | -0.136 |
| CC(C)(C#N)c1cc(Cn2cncn2)cc(C(C)(C)C#N)c1 | -0.205 |

# input for lookup
Fill in the blank: the reported whole-cell filipin (z-score) of CCN(CC)C(=O)Nc1ccc(OCC(O)CNC(C)(C)C)c(C(C)=O)c1 (stereo unspecified) [Celiprolol HCl] is ____. -0.229

---

tested on: A431; test: LBPA endosome anti-LBPA integrated intensity (sum per cell), Z-score; higher = more LBPA staining; conditions: compound concentration in added solution (µM; 5 µl added to 20 µl cells): 10; 18 h
Structures can show the parent of a compound that is named as a salt.
Property: LBPA endosome anti-LBPA integrated intensity (z-score); scope: individual compounds
API doc: respond with a numeric literal and nothing else, no unit.

| Compound | Reading |
| --- | --- |
| CCN(Cc1ccncc1)C(=O)C(CO)c1ccccc1 (stereo not given) [Tropicamide] | -0.503 |
| OCCN1C[C@H](O)[C@@H](O)[C@H](O)[C@H]1CO | -0.534 |
| Cc1cc(NC(=O)C2=C(O)c3ccccc3S(=O)(=O)N2C)no1 | -0.656 |

Value wanted: LBPA endosome anti-LBPA integrated intensity (z-score) (A431) of entry CN(C)C(=O)C(CCN1CCC(O)(c2ccc(Cl)cc2)CC1)(c1ccccc1)c1ccccc1 [Loperamide hydrochloride] 2.04

Form field - read-out: LBPA endosome anti-LBPA integrated intensity (z-score); system: A431; submitted item: CCC(C)n1ncn(-c2ccc(N3CCN(c4ccc(OCC5COC(Cn6cncn6)(c6ccc(Cl)cc6Cl)O5)cc4)CC3)cc2)c1=O (stereo not given) 1.31

---

// reported filipin (z-score) for each item listed
tested on: HeLa MZ; assay: filipin (cholesterol) integrated intensity within LBPA endosomes, Z-score; higher = more cholesterol in LBPA endosomes; conditions: compound concentration in added solution (µM; 5 µl added to 20 µl cells): 10; 18 h

Some solved entries appear below for comparison.
| Molecule | Reading |
| --- | --- |
| NC(=O)c1ncn([C@@H]2O[C@H](CO)[C@@H](O)[C@H]2O)n1 [Ribavirin] | -0.688 |
| CC(=O)OCC(=O)[C@@]1(O)[C@H](C)C[C@H]2[C@@H]3CCC4=CC(=O)C=C[C@]4(C)[C@@]3(F)[C@@H](O)C[C@@]21C [Dexamethasone acetate] | -0.593 |
| CC(=O)N[C@@H](CS)C(=O)O [Acetylcysteine] | -0.456 |

In the following, a different molecule is considered.
What measured filipin (z-score) goes with Nc1nc(O)c2ncn(CCC(CO)CO)c2n1 [Penciclovir] ? -0.438
